Measured target: Single-stranded DNA-binding protein (Escherichia coli (strain K12))
Assay overview: displacement of E. coli SSB from DNA, late-stage follow-up, selectivity assay for HCV NS3 helicase inhibitor project, biochemical, fluorescence polarization (AID 623966)
Condition set: E. coli SSB / Cy5-dT15 DNA
Readings of IC50 for the listed compounds

COc1ccc(S(=O)(=O)Nc2ccc(-c3nc4ccc(-c5nc6ccc(C)c(S(=O)(=O)O)c6s5)cc4s3)cc2)cc1 :: 10 µM
CC(=O)Nc1ccc(-c2nc3ccc(-c4nc5ccc(C)c(S(=O)(=O)O)c5s4)cc3s2)cc1 :: 17 µM
Cc1ccc2nc(-c3ccc4nc(-c5ccc(NC(=O)Nc6ccc(F)cc6)cc5)sc4c3)sc2c1S(=O)(=O)O :: 11 µM

We next turn to a different compound, shown below.
Given the entry Cc1ccc2nc(-c3ccc4nc(-c5ccc(NC(=O)c6ccc(C(C)(C)C)cc6)cc5)sc4c3)sc2c1S(=O)(=O)O , report its measured IC50.
32 µM
